- TARGET OR TEST SYSTEM: Apelin receptor (Homo sapiens)
- METHOD SUMMARY: antagonists of human apelin receptor APJ, primary screen, CHO-K1 cells, beta-arrestin complementation, luminescence (AID 2521);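 further: cells challenged with 10 nM apelin-13 agonist together with compound; plate controls were apelin-13 plus DMSO wells for no effect and DMSO wells lacking apelin-13 for full effect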
- CONDITION PARAMETERS: at 20 µM, active compounds read high
In all, about 330,000 compounds went through this assay and about 1,100 (0.33%) were called active. This excerpt belongs to a sample that is enriched for actives.
Listed next: entries and their corresponding inhibition.
Just the number in %, nothing appended.

INSERT INTO assay_data (compound, metric, assay_result) VALUES
  ('O=C1Oc2ccccc2C(=O)/C1=C/c1ccccc1O', 'inhibition', 3.82),
  ('C[C@H](NC(=O)c1nc[nH]c1C(=O)NCC(=O)OC(C)(C)C)C(=O)OCc1ccccc1', 'inhibition', -0.246),
  ('O=C(/C=C/c1cccs1)NCc1cccnc1', 'inhibition', -1.62),
  ('Cc1nc2nc(CSc3nc4ccccc4s3)cc(=O)n2[nH]1', 'inhibition', -6.29),
  ('Cc1cc2c(c(=O)n1C)C(C(C)C)C(C#N)=C(N)O2 (stereo unspecified)', 'inhibition', -2.07);

Now turn to the next compound.
Query block: Given the compound O=C(CC1SC(=Nc2ccccc2)N(Cc2ccccn2)C1=O)Nc1cccc(Cl)c1 (stereo unspecified) , what is its reported inhibition?
Result block: 0.604
